IC50 values for the compounds below.
# system_tested: intracellular GCN2 (phosphorylation of the GCN2 substrate eIF2α) (Homo sapiens, UniProt Q9P2K8)
# Sequence (Q9P2K8 whole entry): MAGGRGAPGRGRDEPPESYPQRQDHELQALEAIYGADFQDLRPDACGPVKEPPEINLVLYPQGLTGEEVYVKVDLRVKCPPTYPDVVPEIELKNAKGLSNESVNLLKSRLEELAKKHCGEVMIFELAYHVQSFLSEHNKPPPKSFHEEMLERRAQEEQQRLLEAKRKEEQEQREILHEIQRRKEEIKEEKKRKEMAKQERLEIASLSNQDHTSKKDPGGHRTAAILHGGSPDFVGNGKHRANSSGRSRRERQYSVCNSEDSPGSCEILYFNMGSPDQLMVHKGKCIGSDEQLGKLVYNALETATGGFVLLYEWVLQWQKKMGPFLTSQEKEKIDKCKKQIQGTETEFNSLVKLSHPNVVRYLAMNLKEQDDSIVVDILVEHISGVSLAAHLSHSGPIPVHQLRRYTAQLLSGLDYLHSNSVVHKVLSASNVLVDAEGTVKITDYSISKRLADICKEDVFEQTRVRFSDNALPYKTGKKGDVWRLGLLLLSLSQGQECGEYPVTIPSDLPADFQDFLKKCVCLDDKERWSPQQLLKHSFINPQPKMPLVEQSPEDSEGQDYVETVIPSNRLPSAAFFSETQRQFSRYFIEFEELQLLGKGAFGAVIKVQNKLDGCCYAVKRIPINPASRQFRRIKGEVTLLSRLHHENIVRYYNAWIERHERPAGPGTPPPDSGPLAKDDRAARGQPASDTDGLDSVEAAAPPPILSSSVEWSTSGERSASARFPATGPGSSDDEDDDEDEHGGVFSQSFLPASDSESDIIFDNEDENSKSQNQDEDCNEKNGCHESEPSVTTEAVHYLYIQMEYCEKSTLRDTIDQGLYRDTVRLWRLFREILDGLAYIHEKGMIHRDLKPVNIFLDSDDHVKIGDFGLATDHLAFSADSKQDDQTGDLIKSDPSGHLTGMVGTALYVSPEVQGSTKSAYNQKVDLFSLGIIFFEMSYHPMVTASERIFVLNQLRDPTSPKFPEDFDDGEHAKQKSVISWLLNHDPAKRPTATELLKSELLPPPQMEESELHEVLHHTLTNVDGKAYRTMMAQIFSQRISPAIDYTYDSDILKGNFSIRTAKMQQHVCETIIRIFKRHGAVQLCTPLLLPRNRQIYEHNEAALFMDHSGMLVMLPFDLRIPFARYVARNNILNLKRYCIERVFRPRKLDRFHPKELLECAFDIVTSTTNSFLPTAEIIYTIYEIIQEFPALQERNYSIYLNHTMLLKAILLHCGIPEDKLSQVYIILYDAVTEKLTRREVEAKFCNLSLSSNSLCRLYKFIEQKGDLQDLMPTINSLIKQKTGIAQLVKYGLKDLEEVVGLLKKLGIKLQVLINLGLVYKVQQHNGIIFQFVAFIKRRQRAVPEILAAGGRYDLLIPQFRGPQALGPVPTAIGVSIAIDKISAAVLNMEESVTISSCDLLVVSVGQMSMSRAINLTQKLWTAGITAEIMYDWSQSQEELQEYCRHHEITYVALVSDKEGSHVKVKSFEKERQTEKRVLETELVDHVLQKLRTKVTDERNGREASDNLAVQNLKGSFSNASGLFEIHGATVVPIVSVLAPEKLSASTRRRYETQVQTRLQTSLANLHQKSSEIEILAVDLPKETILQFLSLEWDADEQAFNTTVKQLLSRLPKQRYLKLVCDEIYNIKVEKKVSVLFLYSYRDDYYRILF
# measurement_notes: GCN2 cellular inhibition assay (AlphaScreen SureFire P-eIF2α Ser51, borrelidin-treated U2OS cells)
# Type: cell-based
# conditions_used: compounds of Formula II; biomarker assay, phosphorylated eIF2α Ser51 in borrelidin-treated U2OS cells

Below are worked cases with known answers.
CC1CC(F)(F)C(CNS(C)(=O)=O)CN1c1cc(-c2cnc3ccc(C(F)F)nn23)ncn1 (single isomer, unassigned) [II-304]: < 500 nM
CC1C(CNS(C)(=O)=O)C(F)(F)C(C)CN1c1cc(-c2cnc3ccc(C(F)F)nn23)ncn1 (centres unmarked) [II-461]: 500 to 5000 nM

Turning to the following compound.
Input line: For CC1C(CNS(C)(=O)=O)OC(C)(C)CN1c1cc(-c2cnc3ccc(C(F)F)nn23)ncn1 (single isomer, unassigned) [II-484] , what is its reported IC50?
Output line: 500 to 5000 nM
